# test.name: Solubility of compound in solvent
# Format: physicochemical
# Design: key: Good: represents that the compound was completely dissolved; Poor: represents that an insoluble matter remained
# condition.parameters: 15% by weight of compound, 40° C., after 30 minutes, visual

- molecule: "C=CC(=O)OCCCCCCOc1ccc(CCC(=O)O[C@H]2CC[C@H](C(=O)Oc3ccc(OC(=O)[C@H]4CC[C@H](OC(=O)CCc5ccc(OCCCCCCOC(=O)C=C)cc5)CC4)c4nc(-c5ccccc5)cnc34)CC2)cc1 [Compound (1-1-1-1)]"
  solubility in 4-methyl-2-pentanone: "Poor"
- molecule: "C=CC(=O)OCCCCCCOc1ccc(CCC(=O)O[C@H]2CC[C@H](C(=O)Oc3ccc(OC(=O)[C@H]4CC[C@H](OC(=O)CCc5ccc(OCCCCCCOC(=O)C=C)cc5)CC4)c4nc(-c5ccccc5)c(C)nc34)CC2)cc1 [Compound (1-1-2-1)]"
  solubility in 4-methyl-2-pentanone: "Good"
- molecule: "C=CC(=O)OCCCCOc1ccc(OC(=O)[C@H]2CC[C@H](C(=O)Oc3ccc(OC(=O)[C@H]4CC[C@H](C(=O)Oc5ccc(OCCCCOC(=O)C=C)cc5)CC4)c4sc(-c5ccccc5)nc34)CC2)cc1 [Compound (C-1)]"
  solubility in 4-methyl-2-pentanone: "Poor"
- molecule: "C=CC(=O)OCCCCOc1ccc(OC(=O)C2CCC(C(=O)Oc3ccc(OC(=O)C4CCC(C(=O)Oc5ccc(OCCCCOC(=O)C=C)cc5)CC4)c(C=NNc4nc5ccccc5s4)c3)CC2)cc1 (stereo not shown) [Compound (C-2)]"
  solubility in 4-methyl-2-pentanone: "Poor"
